Data origin: PubChem BioAssay AID652010

Provide the recorded inhibition for the entries that follow.
# EXPERIMENTAL_DETAILS: DAX1 (NR0B1) inhibitors on StAR promoter, primary screen, cell-based, luminescence, SF-1 (NR5A1), full-length DAX-1 (AID 652010);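 note: 0% = DAX-1 cells with DMSO and 100% = cells lacking DAX-1 with DMSO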
# CONDITION: HEK293T StAR-luciferase reporter, SF-1/DAX-1 repression relief; at 6.8 µM; stronger effect = higher value
Out of some 370,000 compounds screened, about 4,100 (1.1%) were called active. Many of the other results were omitted from the sample, so actives are more common in it than they were.

Exam item: State the recorded inhibition for this entry: CC(C)CC(=O)NC(=S)NNC(=O)c1cccc([N+](=O)[O-])c1
Marked response: -0.72% (inactive)

Exam item: Entry under review: C=CC1=CCN(S(=O)(=O)C(C)(C)C)[C@@H]1CCO . Reported inhibition?
Marked response: -0.3% (inactive)

Exam item: Looking for the measured inhibition of CCOC(=O)/C=C/c1ccccc1O , can you help?
Marked response: 0.4% (inactive)

Exam item: What value of measured inhibition is listed for CCC(=O)NC(=Nc1nc2ccccc2s1)NC(=O)CC ?
Marked response: 3.92% (active)

Exam item: Find the recorded inhibition belonging to CCN(CC)S(=O)(=O)c1cccc(NC(=O)c2ccc(S(=O)(=O)N3CCCC3)cc2)c1 and report it.
Marked response: -3.89% (inactive)

Exam item: // lookup inhibition for Cc1ccc2nc(CN(C)C(=O)[C@@H](Cc3ccccc3)NC(=O)[C@H]3O[C@@H](n4ccc(=O)[nH]c4=O)[C@H](O)[C@@H]3O)[nH]c2c1
Marked response: 0.2% (inactive)

Exam item: Could you share which inhibition value was measured for CCN(C(=O)[C@@H](C1CC1)[C@@H](O)c1ccc2ccccc2c1)c1ccccc1 ?
Marked response: -0.4% (inactive)

Exam item: Requested read-out: inhibition. Entry: CC(C)C(C)NC(=O)COc1ncnc2ccccc12 (stereo not given)
Marked response: -0.45% (inactive)

Exam item: Endpoint output: inhibition of CSc1ccc(C=Nn2c(-c3ccc(F)cc3)n[nH]c2=S)cc1 . Value?
Marked response: -1.55% (inactive)

Exam item: Requested field: inhibition. Item: CC(NC(=O)COC(=O)c1ccc2ccccc2n1)c1ccccc1 (stereo not given)
Marked response: 0.44% (inactive)

###

# EXPERIMENTAL_DETAILS: DAX1 (NR0B1) inhibitors on StAR promoter, primary screen, cell-based, luminescence, SF-1 (NR5A1), full-length DAX-1 (AID 652010);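 note: 0% = DAX-1 cells with DMSO and 100% = cells lacking DAX-1 with DMSO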
# CONDITION: HEK293T StAR-luciferase reporter, SF-1/DAX-1 repression relief; at 6.8 µM
Among all 370,000 compounds or so, about 4,100 (1.1%) were called active.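 How the source made its calls: active means inhibition above the mean over all tested compounds plus 3 SD (cut at about 3.6% in these data); inactive means the rest.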 For the sample, actives were picked, then their nearest neighbours and some compounds at random.
Write down one outcome, taken from active, inactive

Exam item: Hi team, can someone confirm the assay call for CN1CCN(S(=O)(=O)c2ccc(NC(=O)C3CCCO3)cc2)CC1 (stereo unspecified) ?
Marked response: inactive

Exam item: Which outcome did this test record for the molecule CCOc1ccc(NS(=O)(=O)c2ccc(C(=O)NCC(c3ccccc3OC)N3CCCC3)cc2)cc1 (stereo unspecified) ?
Marked response: inactive

Exam item: // outcome(item) with item = O=C(NCC1(N2CCCCC2)CCCCC1)c1ccc(NS(=O)(=O)c2ccc(F)cc2)cc1
Marked response: active

Exam item: What classification did Nc1nc2cc(Cl)ccc2n1N end up with in this test?
Marked response: inactive

Exam item: Please indicate how the test categorized Nc1ccc2c(c1)C(O)c1ccc(Cl)cc1-2 (stereo unspecified) .
Marked response: inactive

Exam item: // outcome(item) with item = O=C(NCc1ccco1)C1CCCN(S(=O)(=O)c2ccc(Cl)s2)C1 (stereo unspecified)
Marked response: inactive

Exam item: Recorded test call requested for CCOc1ccc(S(=O)(=O)Nc2cccc(C(=O)NCC3(N4CCCCC4)CCCCC3)c2)cc1
Marked response: active

Exam item: Hi, do you know how COc1ccc(S(=O)(=O)NCC(=O)NC2CC2)cc1OC came out in this test?
Marked response: inactive

Exam item: # fetch the recorded call for CN(C)S(=O)(=O)c1ccc(C(=O)NCC2(N3CCOCC3)CCCCC2)cc1 here
Marked response: inactive

Exam item: Would you mind telling me which call this test gave O=C(NCC1(N2CCCCC2)CCCCC1)c1cccc(S(=O)(=O)Nc2ccccc2Cl)c1 ?
Marked response: inactive

Exam item: What did the test return for O=C(O)C1C2C=CC(O2)C1C(=O)Nc1ccccn1 (stereo unspecified) ?
Marked response: inactive
